System: Coagulation factor X (Homo sapiens, UniProt P00742) | Read-out: Ki
Sequence (P00742 41-179 limits assumed): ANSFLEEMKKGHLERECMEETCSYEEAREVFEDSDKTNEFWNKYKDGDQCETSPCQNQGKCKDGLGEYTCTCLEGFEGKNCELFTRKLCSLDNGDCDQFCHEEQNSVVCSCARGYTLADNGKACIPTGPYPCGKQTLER
Sequence (P00742 235-488 limits assumed): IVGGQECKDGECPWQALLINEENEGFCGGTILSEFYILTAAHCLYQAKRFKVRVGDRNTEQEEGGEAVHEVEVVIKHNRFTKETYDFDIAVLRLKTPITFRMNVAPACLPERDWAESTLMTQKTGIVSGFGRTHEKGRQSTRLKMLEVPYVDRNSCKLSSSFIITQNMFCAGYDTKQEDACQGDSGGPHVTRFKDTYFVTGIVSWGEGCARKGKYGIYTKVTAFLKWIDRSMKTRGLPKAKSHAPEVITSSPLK
Please respond with the number in nM and leave the unit unwritten.

See these solved cases before continuing.
N=C(N)c1cccc(OCCNC(=O)C2CCN(c3ccncc3)CC2)c1 | 290
N=C(N)c1ccc(C(=O)NCCOc2cccc(C(=N)N)c2)cc1 | 220
N=C(N)c1ccc(C(=O)N[C@@H](COc2cccc(C(=N)N)c2)CC(=O)O)cc1 | 28
CC(=N)N1CCC(Oc2ccc(C(=O)NCCOc3cc(C(=N)N)ccc3CCC(=O)O)cc2)CC1 | 33
N=C(N)c1ccc(C(=O)N[C@H](COc2cccc(C(=N)N)c2)CC(=O)O)cc1 | 170
N=C(N)c1ccc(CC(=O)C(=O)O)c(OC[C@@H](CC(=O)O)NC(=O)C2CCN(c3ccncc3)CC2)c1 | 18

Checklist item: Ki tested on Coagulation factor X (Homo sapiens, UniProt P00742), entry N=C(N)c1cccc(OCCNC(=O)c2ccc(C(=O)N3CCCC3)cc2)c1 , value? 20

N=C(N)c1cccc(OCCNC(=O)c2ccccc2)c1 ? 2800

====

# TESTED_SYSTEM: Thrombin and coagulation factor X (Homo sapiens) (UniProt P00734+P00742)
# Sequence (P00742 whole entry, looked up, other chains not shown): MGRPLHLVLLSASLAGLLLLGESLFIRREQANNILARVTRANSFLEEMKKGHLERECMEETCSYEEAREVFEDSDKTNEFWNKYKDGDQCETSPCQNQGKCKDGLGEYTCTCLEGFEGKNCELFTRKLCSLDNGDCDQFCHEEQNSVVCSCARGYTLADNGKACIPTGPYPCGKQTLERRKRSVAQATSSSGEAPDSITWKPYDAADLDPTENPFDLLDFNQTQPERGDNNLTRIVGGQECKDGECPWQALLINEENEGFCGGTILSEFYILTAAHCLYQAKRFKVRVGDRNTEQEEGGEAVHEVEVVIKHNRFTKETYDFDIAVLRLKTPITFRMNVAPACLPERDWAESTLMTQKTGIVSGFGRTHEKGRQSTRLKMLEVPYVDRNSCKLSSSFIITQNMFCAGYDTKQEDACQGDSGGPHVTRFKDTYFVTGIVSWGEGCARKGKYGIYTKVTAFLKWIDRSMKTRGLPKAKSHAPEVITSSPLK
# TEST_METHOD_NOTES: Selectivity for factor Xa (fXa) versus thrombin
# Type: protein assay
MEASUREMENT_KIND: Ratio

CC(=N)N1CCC(Oc2ccc(C(=O)N[C@@H](COc3cc(C(=N)N)ccc3CC(=O)C(=O)O)CC(=O)O)cc2)CC1 | 49000

I am curious: what Ratio value has been reported for N=C(N)c1cccc(OCCNC(=O)c2ccc(C(=O)N3CCCC3)cc2)c1 ? 5500

And the next one, N=C(N)c1ccc(C(=O)N[C@H](COc2cccc(C(=N)N)c2)CC(=O)O)cc1 ? > 8800

N=C(N)c1cccc(OCCNC(=O)C2CCN(c3ccncc3)CC2)c1 ? 3500

Can you handle N=C(N)c1ccc(C(=O)NCCOc2cccc(C(=N)N)c2)cc1 next? 3200

// next record N=C(N)c1cccc(OCCNC(=O)c2ccccc2)c1 290

====

# TESTED_SYSTEM: Thrombin and coagulation factor X (Homo sapiens) (UniProt P00734+P00742)
# TEST_METHOD_NOTES: Selectivity for factor Xa (fXa) versus thrombin
# Assay type: protein assay
MEASUREMENT_KIND: Ratio
Respond with the number and no other words.

N=C(N)c1ccc(C(=O)NCCOc2cc(C(=N)N)ccc2CC(=O)C(=O)O)cc1 | 1500

Attention now turns to another entry.
Field request: Ratio | item: CC(=N)N1CCC(Oc2ccc(C(=O)NCCOc3cccc(C(=N)N)c3)cc2)CC1 2600

====

# TEST_METHOD_NOTES: Oral bioavailability
# Type: ADME, organism-based
# CONDITIONS_USED: eutheria, in vivo
MEASUREMENT_KIND: bioavailability (%)
Value expressed in %; do not type the unit.

Reference set, count: 2
N=C(N)c1ccc(CC(=O)C(=O)O)c(OCCNC(=O)C2CCN(c3ccncc3)CC2)c1 | 12
N=C(N)c1ccc(CCC(=O)O)c(OCCNC(=O)C2CCN(c3ccncc3)CC2)c1 | 6

Now let's try a different one.
Entry under review: CC(=N)N1CCC(Oc2ccc(C(=O)N[C@@H](COc3cc(C(=N)N)ccc3CC(=O)C(=O)O)CC(=O)O)cc2)CC1 . Reported bioavailability? 12

====

# TESTED_SYSTEM: Prothrombin (Homo sapiens)
MEASUREMENT_KIND: pKi
Lab note: report pKi as minus log10 of the concentration in molar units, number only.

Answered cases to consult:
N=C(N)c1ccc(CC(=O)C(=O)O)c(OCCNC(=O)c2ccc(C(=O)N3CCCC3)cc2)c1 | 4.62
N=C(N)c1cccc(OCCNC(=O)c2ccccc2)c1 | 3.10
N=C(N)c1cccc(OCCNC(=O)c2ccc(C(=O)N3CCCC3)cc2)c1 | 3.96

What value of pKi has been recorded for this entry: N=C(N)c1ccc(CC(=O)C(=O)O)c(OC[C@@H](CC(=O)O)NC(=O)C2CCN(c3ccncc3)CC2)c1 3.17

What do you get for N=C(N)c1ccc(CC(=O)C(=O)O)c(OCCNC(=O)C2CCN(c3ccncc3)CC2)c1 ? 3.85

====

# TESTED_SYSTEM: Thrombin and coagulation factor X (Homo sapiens) (UniProt P00734+P00742)
# TEST_METHOD_NOTES: Selectivity for factor Xa (fXa) versus thrombin
# Assay type: protein assay
Ratio reference

Some entries whose results are on file:
N=C(N)c1ccc(C(=O)N[C@@H](COc2cccc(C(=N)N)c2)CC(=O)O)cc1 | > 54000
N=C(N)c1ccc(CCC(=O)O)c(OCCNC(=O)C2CCN(c3ccncc3)CC2)c1 | > 35000
N=C(N)c1ccc(CC(=O)C(=O)O)c(OC[C@@H](CC(=O)O)NC(=O)C2CCN(c3ccncc3)CC2)c1 | 38000

Would you kindly share the measured Ratio for CC(=N)N1CCC(Oc2ccc(C(=O)NCCOc3cc(C(=N)N)ccc3CC(=O)C(=O)O)cc2)CC1 ? 2700

// query: CC(=N)N1CCC(Oc2ccc(C(=O)NCCOc3cc(C(=N)N)ccc3CCC(=O)O)cc2)CC1 > 45000

Check N=C(N)c1ccc(CC(=O)C(=O)O)c(OCCNC(=O)C2CCN(c3ccncc3)CC2)c1 too. 6700

Next up: N=C(N)c1ccc(CC(=O)C(=O)O)c(OCCNC(=O)c2ccc(C(=O)N3CCCC3)cc2)c1 8000

====

# TESTED_SYSTEM: UniProt P00734
Measured Ki, listed per entry.

Example entries begin here.
N=C(N)c1ccc(C(=O)N[C@@H](COc2cccc(C(=N)N)c2)CC(=O)O)cc1 | > 1500 µM
CC(=N)N1CCC(Oc2ccc(C(=O)NCCOc3cc(C(=N)N)ccc3CCC(=O)O)cc2)CC1 | > 1500 µM
N=C(N)c1ccc(CCC(=O)O)c(OCCNC(=O)C2CCN(c3ccncc3)CC2)c1 | > 1500 µM

Continue with the compound presented below.
Entry N=C(N)c1ccc(C(=O)N[C@H](COc2cccc(C(=N)N)c2)CC(=O)O)cc1 , system UniProt P00734: what Ki was measured? > 1500 µM
